# Test system: Staphylococcus aureus
# Measurement protocol: Antibacterial activity against methicillin-resistant Staphylococcus aureus (MRSA) 870307 was determined
# Type: functional
log10(MIC) overview
Transform log10 | Measure MIC | Unit µg/mL

Please review the following examples before continuing.
Nc1c(F)c(N2C[C@H]3CC[C@H]4C[C@@]4(N)[C@H]3C2)c(F)c2c1c(=O)c(C(=O)O)cn2[C@@H]1C[C@@H]1F (stereo in doubt; 13 (+)): -2.22
Nc1c(F)c(N2C[C@H]3C[C@@H]4C[C@@H]4[C@@H](N)[C@H]3C2)c(F)c2c1c(=O)c(C(=O)O)cn2[C@@H]1C[C@@H]1F (stereo in doubt; 24 (+)): -2.00
Nc1c(F)c(N2C[C@H]3CCC[C@@H](N)[C@H]3C2)c(F)c2c1c(=O)c(C(=O)O)cn2[C@@H]1C[C@@H]1F (stereo in doubt; 29 (-)): -0.11
Nc1c(F)c(N2C[C@H]3CC[C@H]4C[C@@]4(N)[C@H]3C2)c(F)c2c1c(=O)c(C(=O)O)cn2[C@@H]1C[C@@H]1F (stereo in doubt; 14 (-)): -0.70

Continue with the molecule presented below.
Record Nc1c(F)c(N2C[C@H]3C[C@@H]4C[C@@H]4[C@@H](N)[C@H]3C2)c(F)c2c1c(=O)c(C(=O)O)cn2[C@@H]1C[C@@H]1F (stereo in doubt; 25 (-)) . Reported log10(MIC): 0.19
